- assayExplanation: Cmax in C57BL/6 mouse plasma at 10 mg/kg, po
- Assay type: ADME, organism-based
- Set-up: dose 10 mg/kg, route oral
measurementLabel: Cmax
Note: a bare number is incomplete; add the unit.

*Q* Which Cmax value is on record for "C/C=C(/C)C#Cc1ccc(CCC(=O)O)c(F)c1" ?
*A* 44.7 µM

----------
- targetSystem: Free fatty acid receptor 4 (Homo sapiens, UniProt Q5NUL3)
- assayExplanation: Agonist activity at human C-terminal YFP-tagged FFA4 receptor expressed in HEK293 cells incubated for 5 mins by BRET based beta-arrestin 2 recruitment assay
Below is a list of entries, each paired with its recorded pEC50 value.
A value of pEC50 is the negative decimal logarithm of a concentration given in moles per litre.

Would you please look over these solved cases?
1) C/C=C(/C)C#Cc1ccc(CCC(=O)O)c(F)c1 ... 4.70
2) C/C=C/C#Cc1ccc(CCC(=O)O)c(F)c1 ... 4.46
3) O=C(O)CCc1ccc(C#CC2CCCCC2)cc1 ... 5.02

Next compound, please.
*Q* Which pEC50 value is on record for "O=C(O)CCc1ccc(C#CC2CCCC2)cc1" ?
*A* 4.47

----------
- targetSystem: Free fatty acid receptor 1 (Homo sapiens, UniProt O14842)
- Sequence (O14842 whole entry): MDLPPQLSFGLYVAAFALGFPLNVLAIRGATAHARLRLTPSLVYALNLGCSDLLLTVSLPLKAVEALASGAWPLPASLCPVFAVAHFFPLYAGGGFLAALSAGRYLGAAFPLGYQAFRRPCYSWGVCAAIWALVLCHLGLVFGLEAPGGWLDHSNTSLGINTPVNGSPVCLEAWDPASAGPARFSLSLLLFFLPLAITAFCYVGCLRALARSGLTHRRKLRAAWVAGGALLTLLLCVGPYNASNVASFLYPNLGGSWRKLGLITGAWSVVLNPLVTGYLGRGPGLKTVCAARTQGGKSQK
- assayExplanation: Agonist activity at human FFA1 receptor expressed in human 1321N1 cells measured for 50 intervals of 0.4 secs by calcium mobilization assay
- Type: functional, cell-based
- runParameters: read-out: EC50
Below is a list of entries, each paired with its recorded EC50 value.
Report only the number, with the unit nM understood.

1) CC/C=C\C/C=C\C/C=C\CCCCCCCC(=O)O [LINOLENIC ACID] ... 3000

Next compound, please.
*Q* Which EC50 value is on record for "C/C=C(/C)C#Cc1ccc(CCC(=O)O)c(F)c1" ?
*A* 20

----------
Below is a list of entries, each paired with its recorded EC50 value.
- targetSystem: UniProtKB Q5NUL3
- Sequence (Q5NUL3 whole entry): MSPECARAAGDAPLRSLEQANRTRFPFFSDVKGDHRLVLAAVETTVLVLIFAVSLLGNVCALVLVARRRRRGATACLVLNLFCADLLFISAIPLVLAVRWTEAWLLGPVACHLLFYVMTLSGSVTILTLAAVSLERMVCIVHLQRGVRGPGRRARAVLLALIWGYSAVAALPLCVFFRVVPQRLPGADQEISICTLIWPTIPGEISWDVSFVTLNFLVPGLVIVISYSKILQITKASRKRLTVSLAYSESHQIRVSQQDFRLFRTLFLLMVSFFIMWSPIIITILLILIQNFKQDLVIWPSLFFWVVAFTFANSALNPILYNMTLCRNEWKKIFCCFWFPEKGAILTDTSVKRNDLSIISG
- assayExplanation: Agonist activity at human C-terminal YFP-tagged FFA4 receptor expressed in HEK293 cells incubated for 5 mins by BRET based beta-arrestin 2 recruitment assay

1. C#Cc1ccc(CCC(=O)O)cc1 ... > 100 µM

*Q* Which EC50 value is on record for "C/C(C#Cc1ccc(CCC(=O)O)c(F)c1)=C/CO" ?
*A* > 100 µM

*Q* Which EC50 value is on record for "C=C(C)C#Cc1ccc(CCC(=O)O)c(F)c1" ?
*A* > 100 µM

*Q* Which EC50 value is on record for "O=C(O)CCc1ccc(C#CC2=CCCCC2)cc1" ?
*A* > 100 µM
